species: Homo sapiens; experiment: Selectivity index, […] for alpha2-AR human brain frontal cortex […] in human brain frontal cortex
As shown below, each of these molecules has a reported Ratio pKi value.
Quick one: just the number, no unit, thanks!

The examples below pair each entry with its known result.
The molecule identified as CCOP(=O)(OCC)C1(Cc2ccccc2)N=CC2C(=O)N(c3ccccc3)C(=O)C21 (racemic) registered its Ratio pKi at 447

The molecule identified as CCOP(=O)(OCC)C1(c2ccc(OC)cc2)N=CC2C(=O)N(c3ccc(F)c(Cl)c3)C(=O)C21 (racemic) registered its Ratio pKi at 74100

The molecule identified as CCOP(=O)(OCC)C1(c2ccccc2)N=CC2C(=O)N(CCc3ccccc3)C(=O)C21 (racemic) registered its Ratio pKi at 380

Continuing:
The molecule identified as CCOP(=O)(OCC)C1N=CC2C(=O)N(C3CCCCC3)C(=O)C21 (racemic) registered its Ratio pKi at 5

The molecule identified as CCOP(=O)(OCC)C1(c2ccccc2)N=CC2C(=O)N(C3Cc4ccccc4C3)C(=O)C21 (racemic) registered its Ratio pKi at 2

The molecule identified as CCOP(=O)(OCC)C1(c2ccccc2)N=CC2C(=O)N(CC34CC5CC(CC(C5)C3)C4)C(=O)C21 (racemic) registered its Ratio pKi at 501

The molecule identified as CCOP(=O)(OCC)C1(c2ccccc2)N=CC2C(=O)N(C(C)(C)C)C(=O)C21 (racemic) registered its Ratio pKi at 3

The molecule identified as CCOP(=O)(OCC)C1(c2ccccc2)N=CC2C(=O)N(C)C(=O)C21 (racemic) registered its Ratio pKi at 110

Data provenance: ChEMBL document CHEMBL4354864
